- study_target: ABHD6 (Mus musculus, UniProt Q8R2Y0)
- Construct: Proteomes (mouse brain membrane fraction or cell lysates); from tissue; host or cells: mouse brain membrane fraction (or unspecified cell lysates)
- Sequence (Q8R2Y0 whole entry): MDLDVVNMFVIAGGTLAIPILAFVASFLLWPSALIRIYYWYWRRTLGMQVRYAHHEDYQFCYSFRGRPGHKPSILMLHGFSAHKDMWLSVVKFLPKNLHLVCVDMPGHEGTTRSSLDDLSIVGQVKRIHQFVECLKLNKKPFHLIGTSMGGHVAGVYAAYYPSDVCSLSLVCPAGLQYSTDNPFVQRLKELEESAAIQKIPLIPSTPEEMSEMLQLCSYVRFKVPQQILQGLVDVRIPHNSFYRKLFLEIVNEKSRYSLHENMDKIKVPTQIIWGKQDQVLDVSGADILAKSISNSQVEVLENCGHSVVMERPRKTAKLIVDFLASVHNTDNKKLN
- test_description: In vitro competitive activity-based protein profiling (mouse), ABHD6
- Type: biochemical
- measurement_parameters: mouse brain membrane fraction or cell lysates, 30 min preincubation at 37° C, FP-Rh probe
reported_metric: IC50

Worked cases, answers included:
{"compound": "O=C(OC(C(F)(F)F)C(F)(F)F)N1CCN(Cc2ccc(C(F)(F)F)c(N3CCC(CO)C3)c2)CC1 (stereo not drawn)", "IC50": "100 to 1000 nM"}
{"compound": "O=C(OC(C(F)(F)F)C(F)(F)F)N1CCN(Cc2ccc(C(F)(F)F)cc2N2CCC(C(=O)N3CCCC3)CC2)CC1", "IC50": "> 1000 nM"}
{"compound": "O=C(OC(C(F)(F)F)C(F)(F)F)N1CCN(Cc2cc(N3CCCC3CO)cc(C(F)(F)F)c2)CC1 (stereo not drawn)", "IC50": "100 to 1000 nM"}
{"compound": "CS(=O)(=O)N[C@H]1CCN(c2cc(Cl)ccc2CN2CCN(C(=O)OC(C(F)(F)F)C(F)(F)F)CC2)C1", "IC50": "> 1000 nM"}
{"compound": "Cc1c(CN2CCC(F)CC2)cccc1CN1CCN(C(=O)OC(C(F)(F)F)C(F)(F)F)CC1", "IC50": "100 to 1000 nM"}
{"compound": "O=C(OC(C(F)(F)F)C(F)(F)F)N1CCN(Cc2cc(N3CCC(CO)CC3)cc(C(F)(F)F)c2)CC1", "IC50": "100 to 1000 nM"}
{"compound": "O=C(OC(C(F)(F)F)C(F)(F)F)N1CCN(Cc2ccc(C(F)(F)F)c(N3CCCC3CO)c2)CC1 (stereo not drawn)", "IC50": "< 100 nM"}
{"compound": "O=C(O)C1CCN(c2cc(CN3CCN(C(=O)OC(C(F)(F)F)C(F)(F)F)CC3)cc(C(F)(F)F)c2)CC1", "IC50": "< 100 nM"}
{"compound": "O=C(OC(C(F)(F)F)C(F)(F)F)N1CCN(Cc2ccc(Cl)cc2N2CC[C@@H](N3CCCCC3=O)C2)CC1", "IC50": "> 1000 nM"}
{"compound": "NC(=O)C1CCN(c2cc(Cl)ccc2CN2CCN(C(=O)OC(C(F)(F)F)C(F)(F)F)CC2)CC1", "IC50": "100 to 1000 nM"}

get_value(item= CC(=O)N1CCN(Cc2cccc(CN3CCN(C(=O)OC(C(F)(F)F)C(F)(F)F)CC3)c2C)CC1 , readout=IC50) returns < 100 nM

For this compound ( Cc1c(CN2CCN(C(=O)OC(C(F)(F)F)C(F)(F)F)CC2)cccc1CN1CCCC[C@H]1C ), measured IC50 is 100 to 1000 nM

Looking up O=C(O)C1CCN(c2cc(CN3CCN(C(=O)OC(C(F)(F)F)C(F)(F)F)CC3)cc(C(F)(F)F)c2)C1 (stereo not drawn) , I found its IC50 recorded as < 100 nM

GET /value?item= O=C(OC(C(F)(F)F)C(F)(F)F)N1CCN(Cc2ccc(Cl)cc2N2CCC(C(=O)N3CCCC3)CC2)CC1 &field=IC50 returns > 1000 nM

Consider Cc1cccc(CN2CCN(C(=O)OC(C(F)(F)F)C(F)(F)F)CC2)c1N1CC[C@H](CF)C1 . Its measured IC50 is > 1000 nM
